The following binders are shown together with reported pKd values.
Target: cynomolgus monkey heterodimeric single-chain CD3εγ extracellular domain (cynomolgus monkey, UniProt Q95LI5 22-117; Q95LI7 23-113)
Sequence (Q95LI7 other isoform, or with tags, fused parts or gaps): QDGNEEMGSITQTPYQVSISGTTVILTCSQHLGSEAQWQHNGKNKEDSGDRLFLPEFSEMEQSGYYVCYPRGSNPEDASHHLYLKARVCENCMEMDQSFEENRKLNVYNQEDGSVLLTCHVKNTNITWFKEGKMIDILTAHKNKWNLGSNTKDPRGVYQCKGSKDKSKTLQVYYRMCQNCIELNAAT
Experiment: SPR, rabbit IgG captured, cyno single-chain CD3εγ ECD injected
Just the number, please; pKd means minus log10 of the concentration in mol/L.

Examples with answers:
Binder	pKd
clone-09 (antibody, V domains shown, Recombinant rabbit IgG) VH: QSLEESGGRLVTPGTPLTLTCTVSGFPLNRYAMLWVRQAPGKGLEWIGLITRADKKYYASWAKGRFTISKTSTTVDLEITGPTTEDTATYFCARRHYNTDGYPVAIGDLWGPGTLVTVSS VL: AQVLTQTPSSVSAAVGGTVTISCQSNENIYSNNRLSWFQQKPGQPPNQLIYSASSLASGVPSRFKGSGSGTQFTLTISDLECDDAATYYCQGEFNCNSADCFTFGGGTEVVVKG	7.94
clone-06 (antibody, V domains shown, Recombinant rabbit IgG; also called Clone 6) VH: QSVEESGGRLVTPGTPLTLTCTVSGFPLSSYAMIWVRQAPGKGLEWIGMILRAGNIYYASWVKGRVTISKTSTTVDLKITSPTTEDTATYFCARRHYNREGYPIGIGDLWGPGTLVTVSS VL: AQVLTQTPSSVSAAVGGTVTISCQSSESVYNNKRLSWFQQKPGQPPKQLIYTASSLASGVPSRFKGSGSGTQFTLTISDLECDDAATYYCQGEFTCSNADCFTFGGGTEVVVKG	8.05
clone-11 (antibody, V domains shown, Recombinant rabbit IgG) VH: QSLEESGGRLVTPGTPLTLTCTVSGFPLSSYAMGWFRQAPGKGLEWIGMILRADNTYYASWVNGRFTISKTSTTVDLKITSPTTEDTATYFCARRHYNTYGYPVAIGDLWGPGTLVTVSS VL: AQVLTQTPSSVSAAVGGTVTINCQSSQSVYNNNRLSWFQQKPGQPPKLLIYTASSLASGVPSRFKGSGSGTEFTLTISDLECADAATYYCQGEFSCSSADCFTFGGGTEVVVKG	8.00
clone-10 (antibody, V domains shown, Recombinant rabbit IgG) VH: QSLEESGGRLVTPGTPLTLTCTVSGFPLSSFAMLWVRQAPGKGLEWIGMIMRAHNMYYASWAKGRFTISKTSTTVDLEITSPTTEDTATYFCARRHYNTYGYPIAIGDLWGPGTLVTVSS VL: AQVLTQTPSSVSAAVGGTATISCQSNENIYSNNRLSWFQQKAGQPPNQLIYSASSLASGVPSRFKGSGSGTQFTLTISDLECDDAATYYCQGEFSCSSADCFTFGGGTEVVVKG	7.96

## Task // lookup pKd for clone-02 (antibody, V domains shown, Recombinant rabbit IgG; also called Clone 2) VH: QSLEESGGRLVTPGTPLTLTCTVSGFPLSAYAMIWVRQAPGKGLEWIGMIIRSGTVYYANWAKGRFTISKTSTTVDLKITSPTTEDTATYFCARRHYNADGYPIGIGDLWGPGTLVTVSS VL: AQVLTQTPSSVSAVVGGTVTISCQSSESVYSNNRLSWFQQKPGQPPKLLIYSASTLASGVPSRFKGSGSGTQFTLTITDLECDDAATYFCQGEFSCSSVDCFSFGGGTEVVVKG
## Result 8.41

Hello, the source for this data is patent US20180244777A1, in case you need it.
